tgt: KRAS G12C (Homo sapiens, UniProt P01116+P62937, G12C)
Sequence (P01116 1-169 isoform P01116-2 G12C, one chain of several): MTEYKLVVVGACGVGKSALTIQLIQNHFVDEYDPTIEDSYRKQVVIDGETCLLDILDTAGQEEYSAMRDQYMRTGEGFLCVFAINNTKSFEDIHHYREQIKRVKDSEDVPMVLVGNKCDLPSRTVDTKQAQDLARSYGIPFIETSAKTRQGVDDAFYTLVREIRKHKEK
protocol details: Disruption of BRAF RBD interaction with Ras (FRET / MOA assay, with Cyclophilin A)
Assay type: biochemical
applied conditions: read-out: KRAS G12C FRET data, IC50
Source text: This protocol may also be executed substituting other Ras proteins or nucleotides. The purpose of this biochemical assay was to measure the ability of test compounds to facilitate ternary complex formation between a nucleotide-loaded K-Ras isoform and Cyclophilin A; the resulting ternary complex disrupts binding to a BRAF^RBD construct, inhibiting K-Ras signaling through a RAF effector. Data is reported as IC50 values. […]
pIC50: −log10 of the molar value.

- compound: "CCn1c(-c2cccnc2[C@H](C)OC)c2c3cc(ccc31)-c1csc(n1)C[C@H](NC(=O)[C@H](C(C)C)N(C)C(=O)[C@@H]1C[C@@H]1C)C(=O)N1CCC[C@H](N1)C(=O)OCC(C)(C)C2"
  pIC50: "5.00 to 6.00"
- compound: "CCn1c(-c2cccnc2[C@H](C)OC)c2c3cc(ccc31)-c1csc(n1)C[C@H](NC(=O)[C@H](C(C)C)N(C)C(=O)N1CC(N(C)S(C)(=O)=O)C1)C(=O)N1CCC[C@H](N1)C(=O)OCC(C)(C)C2 (atropisomer, axis not shown)"
  pIC50: "7.00 to 8.00"
- compound: "CCn1c(-c2cccnc2[C@H](C)OC)c2c3cc(ccc31)-c1csc(n1)C[C@H](NC(=O)[C@H](C(C)C)N(C)C(=O)N(C)C(C)C)C(=O)N1CCC[C@H](N1)C(=O)OCC(C)(C)C2"
  pIC50: "7.00 to 8.00"
- compound: "CCn1c(-c2cccnc2[C@H](C)OC)c2c3cc(ccc31)-c1csc(n1)C[C@H](NC(=O)[C@H](C1CCCC1)N(C)C(=O)N1CCN(C)CC1)C(=O)N1CCC[C@H](N1)C(=O)OCC(C)(C)C2"
  pIC50: "6.00 to 7.00"
- compound: "CCn1c(-c2cccnc2[C@H](C)OC)c2c3cc(ccc31)-c1csc(n1)C[C@H](NC(=O)[C@H](C(C)C)N(C)C(=O)N1CC(C#N)C1)C(=O)N1CCC[C@H](N1)C(=O)OCC(C)(C)C2 (atropisomer, axis not shown)"
  pIC50: "7.00 to 8.00"
- compound: "CCn1c(-c2cccnc2[C@H](C)OC)c2c3cc(ccc31)-c1csc(n1)C[C@H](NC(=O)[C@@H](OC(=O)N1CC(N(C)C)C1)C(C)C)C(=O)N1CCC[C@H](N1)C(=O)OCC(C)(C)C2"
  pIC50: "6.00 to 7.00"
- compound: "CCn1c(-c2cccnc2[C@H](C)OC)c2c3cc(ccc31)-c1csc(n1)C[C@H](NC(=O)[C@H](C(C)C)N(C)C(=O)N1CCO[C@@H](C)C1)C(=O)N1CCC[C@H](N1)C(=O)OCC(C)(C)C2 (atropisomer, axis not shown)"
  pIC50: "7.00 to 8.00"
- compound: "CCn1c(-c2cc(C3CCN(C)CC3)cnc2[C@H](C)OC)c2c3cc(ccc31)-c1csc(n1)C[C@H](NC(=O)[C@H](C(C)C)N(C)C(=O)N1CC(C3COC3)C1)C(=O)N1CCC[C@H](N1)C(=O)OCC(C)(C)C2"
  pIC50: "7.00 to 8.00"
- compound: "CCn1c(-c2cc(N3CCN(C)CC3)cnc2[C@H](C)OC)c2c3cc(ccc31)-c1csc(n1)C[C@H](NC(=O)[C@H](C(C)C)N(C)C(=O)[C@H]1CCNC1=O)C(=O)N1CCC[C@H](N1)C(=O)OCC(C)(C)C2 (single isomer, unassigned)"
  pIC50: "6.00 to 7.00"
- compound: "CCn1c(-c2cccnc2[C@H](C)OC)c2c3cc(ccc31)-c1csc(n1)C[C@H](NC(=O)[C@H](C(C)C)N(C)C(=O)N1CCC3(CN(C)C3)C1)C(=O)N1CCC[C@H](N1)C(=O)OCC(C)(C)C2 (atropisomer, axis not shown)"
  pIC50: "7.00 to 8.00"
- compound: "CCn1c(-c2cc(N3CCN(C)CC3)cnc2[C@H](C)OC)c2c3cc(ccc31)-c1csc(n1)C[C@H](NC(=O)[C@H](C(C)C)N(C)C(=O)N1CCOCC1)C(=O)N1CCC[C@H](N1)C(=O)OCC(C)(C)C2 (atropisomer, axis not shown)"
  pIC50: "7.00 to 8.00"
- compound: "CCn1c(-c2cccnc2COC)c2c3cc(ccc31)-c1cc(O)cc(c1)C[C@H](NC(=O)[C@H](C(C)C)N(C)C(=O)[C@H]1CCN(C(C)=O)C1)C(=O)N1CCC[C@H](N1)C(=O)OCC(C)(C)C2"
  pIC50: "6.00 to 7.00"
- compound: "CCn1c(-c2cccnc2[C@H](C)OC)c2c3cc(ccc31)-c1csc(n1)C[C@H](NC(=O)[C@H](C(C)C)N(C)C(=O)N1CC3(CC(N(C)CCOC)C3)C1)C(=O)N1CCC[C@H](N1)C(=O)OCC(C)(C)C2 (atropisomer, axis not shown)"
  pIC50: "6.00 to 7.00"
- compound: "CCn1c(-c2cc(N3CCN(C)CC3)cnc2[C@H](C)OC)c2c3cc(ccc31)-c1csc(n1)C[C@H](NC(=O)[C@H](C(C)C)N(C)C(=O)N1CCC13CCN(C)CC3)C(=O)N1CCC[C@H](N1)C(=O)OCC(C)(C)C2 (atropisomer, axis not shown)"
  pIC50: "7.00 to 8.00"
- compound: "CCn1c(-c2cccnc2[C@H](C)OC)c2c3cc(ccc31)-c1cc(O)cc(c1)C[C@H](NC(=O)[C@H](C(C)C)N(C)C(=O)N1CC(N(C)C)C1)C(=O)N1CCC[C@H](N1)C(=O)OCC(C)(C)C2"
  pIC50: "6.00 to 7.00"
- compound: "CCn1c(-c2cccnc2[C@H](C)OC)c2c3cc(ccc31)-c1csc(n1)C[C@H](NC(=O)[C@H](C(C)C)N(C)C(=O)N1CCN(C(=O)C3COC3)CC1)C(=O)N1CCC[C@H](N1)C(=O)OCC(C)(C)C2 (atropisomer, axis not shown)"
  pIC50: "7.00 to 8.00"

====

tgt: KRAS G13C (Homo sapiens, UniProt P01116+P62937, G13C)
Sequence (P01116 1-169 isoform P01116-2 G13C): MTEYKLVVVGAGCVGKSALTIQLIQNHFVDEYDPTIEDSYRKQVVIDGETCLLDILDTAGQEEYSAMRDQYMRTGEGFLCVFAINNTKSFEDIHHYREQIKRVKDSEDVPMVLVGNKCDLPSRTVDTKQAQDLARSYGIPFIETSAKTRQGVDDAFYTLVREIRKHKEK
Sequence (P62937 whole entry): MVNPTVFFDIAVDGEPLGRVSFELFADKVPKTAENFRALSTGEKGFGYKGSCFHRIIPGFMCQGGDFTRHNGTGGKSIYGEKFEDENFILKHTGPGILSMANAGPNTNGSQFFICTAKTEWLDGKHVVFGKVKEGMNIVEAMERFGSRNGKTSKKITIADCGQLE
protocol details: Disruption of BRAF RBD interaction with Ras (FRET / MOA assay, with Cyclophilin A)
Format: biochemical
applied conditions: read-out: KRAS G13C FRET data, IC50

- molecule: "CCn1c(-c2cccnc2[C@H](C)OC)c2c3cc(ccc31)-c1cc(O)cc(c1)C[C@H](NC(=O)[C@@H]1C[C@H]1C)C(=O)N1CCC[C@H](N1)C(=O)OCC(C)(C)C2 [Example A183]"
  IC50: "100 to 1000 nM"
- molecule: "CCn1c(-c2cccnc2[C@H](C)OC)c2c3cc(ccc31)-c1csc(n1)C[C@H](NC(=O)[C@H](C(C)C)N(C)C(=O)N1CC3(CC(N(C)CCOC)C3)C1)C(=O)N1CCC[C@H](N1)C(=O)OCC(C)(C)C2 (atropisomer, axis not shown) [Example A532]"
  IC50: "100 to 1000 nM"
- molecule: "CCn1c(-c2cccnc2[C@H](C)OC)c2c3cc(ccc31)-c1csc(n1)C[C@H](NC(=O)[C@H](C(C)C)N(C)C(=O)N(C)C[C@@H]1CCCN1C)C(=O)N1CCC[C@H](N1)C(=O)OCC(C)(C)C2 [Example A504]"
  IC50: "100 to 1000 nM"
- molecule: "CCn1c(-c2cccnc2[C@H](C)OC)c2c3cc(ccc31)-c1csc(n1)C[C@H](NC(=O)[C@H](C(C)C)N(C)C(=O)N1CCN3CCOC[C@H]3C1)C(=O)N1CCC[C@H](N1)C(=O)OCC(C)(C)C2 [Example A548]"
  IC50: "100 to 1000 nM"
- molecule: "CCn1c(-c2cnccc2COC)c2c3cc(ccc31)-c1cc(O)cc(c1)C[C@H](NC(=O)[C@H](C(C)C)N(C)C(=O)[C@H]1CCN(C(C)C)C1)C(=O)N1CCC[C@H](N1)C(=O)OCC(C)(C)C2 [Example A41]"
  IC50: "10 to 100 nM"
- molecule: "CCn1c(-c2cccnc2[C@H](C)OC)c2c3cc(ccc31)-c1csc(n1)C[C@H](NC(=O)[C@H](C(C)C)N(C)C(=O)[C@H]1CCN(C)C1)C(=O)N1CCC[C@H](N1)C(=O)OCC(C)(C)C2 [Example A108]"
  IC50: "1000 to 10000 nM"
- molecule: "CCn1c(-c2cccnc2[C@H](C)OC)c2c3cc(ccc31)-c1csc(n1)C[C@H](NC(=O)[C@H]1CCO1)C(=O)N1CCC[C@H](N1)C(=O)OCC(C)(C)C2 [Example A360]"
  IC50: "100 to 1000 nM"
- molecule: "CCn1c(-c2cccnc2[C@H](C)OC)c2c3cc(ccc31)-c1csc(n1)C[C@H](NC(=O)[C@H](C(C)C)N(C)C(=O)N1C[C@@H]3CN(C)C[C@@H]31)C(=O)N1CCC[C@H](N1)C(=O)OCC(C)(C)C2 (atropisomer, axis not shown) [Example A446]"
  IC50: "1000 to 10000 nM"
- molecule: "CCn1c(-c2cccnc2[C@H](C)OC)c2c3cc(ccc31)-c1cc(O)cc(c1)C[C@H](NS(=O)(=O)CC1CC1)C(=O)N1CCC[C@H](N1)C(=O)OCC(C)(C)C2 [Example A200]"
  IC50: "> 10000 nM"
- molecule: "CCn1c(-c2cccnc2[C@H](C)OC)c2c3cc(ccc31)-c1csc(n1)C[C@H](NC(=O)[C@H](C(C)C)N(C)C(=O)N1CC[C@]13CCCNC3)C(=O)N1CCC[C@H](N1)C(=O)OCC(C)(C)C2 [Example A434]"
  IC50: "100 to 1000 nM"
- molecule: "CCn1c(-c2cccnc2[C@H](C)OC)c2c3cc(ccc31)-c1csc(n1)C[C@H](NC(=O)[C@H](C(C)C)N(C)C(=O)N1C[C@H](C)N(C)C[C@@H]1C)C(=O)N1CCC[C@H](N1)C(=O)OCC(C)(C)C2 [Example A283]"
  IC50: "1000 to 10000 nM"
- molecule: "CCn1c(-c2cccnc2[C@H](C)OC)c2c3cc(cnc31)-c1csc(n1)C[C@H](NC(=O)[C@H](C(C)C)N(C)C(=O)N1CC(OC)C1)C(=O)N1CCC[C@H](N1)C(=O)OCC(C)(C)C2 [Example A612]"
  IC50: "1000 to 10000 nM"
- molecule: "CCn1c(-c2cccnc2[C@H](C)OC)c2c3cc(ccc31)-c1csc(n1)C[C@H](NC(=O)[C@H](C(C)C)N(C)C(=O)N1CCN(C(=O)[C@H]3CCCN3C)CC1)C(=O)N1CCC[C@H](N1)C(=O)OCC(C)(C)C2 (atropisomer, axis not shown) [Example A595]"
  IC50: "100 to 1000 nM"
- molecule: "CCn1c(-c2cccnc2[C@H](C)OC)c2c3cc(ccc31)-c1cc(O)cc(c1)C[C@H](NC(=O)C(C1CC1)C1CC1)C(=O)N1CCC[C@H](N1)C(=O)OCC(C)(C)C2 [Example A184]"
  IC50: "10 to 100 nM"
- molecule: "CCn1c(-c2cccnc2[C@H](C)OC)c2c3cc(ccc31)-c1cc(O)cc(c1)C[C@H](NS(=O)(=O)CC1OCCC13CNC3)C(=O)N1CCC[C@H](N1)C(=O)OCC(C)(C)C2 (mixture of isomers) [Example A187]"
  IC50: "> 10000 nM"
- molecule: "CCn1c(-c2cccnc2[C@H](C)OC)c2c3cc(ccc31)-c1csc(n1)C[C@H](NC(=O)[C@H](C(C)C)N(C)C(=O)N1CCC[C@@H](CN(C)C)C1)C(=O)N1CCC[C@H](N1)C(=O)OCC(C)(C)C2 [Example A574]"
  IC50: "100 to 1000 nM"
- molecule: "CCn1c(-c2cccnc2[C@H](C)OC)c2c3cc(ccc31)-c1cc(O)cc(c1)C[C@H](NC(=O)[C@H](C(C)C)N(C)C(=O)[C@@H]1CCNC1)C(=O)N1CCC[C@H](N1)C(=O)OCC(C)(C)C2 [Example A129]"
  IC50: "10 to 100 nM"
